Biological target: OsGID1 (Oryza sativa, UniProt Q6L545)
Construct: gene GID1; recombinant, purified
Sequence (Q6L545 whole entry): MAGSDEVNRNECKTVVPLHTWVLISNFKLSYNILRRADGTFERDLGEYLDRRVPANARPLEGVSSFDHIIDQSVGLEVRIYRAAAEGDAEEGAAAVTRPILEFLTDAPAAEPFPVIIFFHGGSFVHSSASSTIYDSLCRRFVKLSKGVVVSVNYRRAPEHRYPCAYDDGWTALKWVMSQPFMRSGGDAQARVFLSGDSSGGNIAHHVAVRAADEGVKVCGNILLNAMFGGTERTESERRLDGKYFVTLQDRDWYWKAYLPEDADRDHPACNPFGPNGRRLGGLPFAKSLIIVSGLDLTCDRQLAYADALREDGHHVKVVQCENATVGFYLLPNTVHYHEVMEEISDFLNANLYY
Assay: (method not stated for the binary complex)
Type: binding
Conditions: read-out: Kb (converted)
measured property: Kd (nM)

Known results for compounds:
compound: C=C1C[C@]23C[C@H]1CC[C@H]2[C@@]12CC[C@H](O)[C@@](C)(C(=O)O1)[C@H]2[C@@H]3C(=O)O [GA4]
uom: nM
Kd: 192

compound: C=C1C[C@]23C[C@@]1(O)CC[C@H]2[C@@]12C=C[C@H](O)[C@@](C)(C(=O)O1)[C@H]2[C@@H]3C(=O)O [GA3]
uom: nM
Kd: 3570

(1) C=C1C[C@]23C[C@H]1CC[C@H]2[C@@]12C=C[C@H](O)[C@@](C)(C(=O)O1)[C@H]2[C@@H]3C(=O)O [GA7]
(2) C=C1C[C@]23C[C@@]1(O)CC[C@H]2[C@@]12CC[C@H](O)[C@@](C)(C(=O)O1)[C@H]2[C@@H]3C(=O)O [GA1]
Looking at 1 and 2 , which one comes out lower in Kd terms? # answer = label of selected item
1
(1: 238 nM, 2: 1920 nM)
